All figures here come from the supplement of paper PMC3334620.

# measured_target: Stp1 (UniProt B3LFK1)
# Sequence: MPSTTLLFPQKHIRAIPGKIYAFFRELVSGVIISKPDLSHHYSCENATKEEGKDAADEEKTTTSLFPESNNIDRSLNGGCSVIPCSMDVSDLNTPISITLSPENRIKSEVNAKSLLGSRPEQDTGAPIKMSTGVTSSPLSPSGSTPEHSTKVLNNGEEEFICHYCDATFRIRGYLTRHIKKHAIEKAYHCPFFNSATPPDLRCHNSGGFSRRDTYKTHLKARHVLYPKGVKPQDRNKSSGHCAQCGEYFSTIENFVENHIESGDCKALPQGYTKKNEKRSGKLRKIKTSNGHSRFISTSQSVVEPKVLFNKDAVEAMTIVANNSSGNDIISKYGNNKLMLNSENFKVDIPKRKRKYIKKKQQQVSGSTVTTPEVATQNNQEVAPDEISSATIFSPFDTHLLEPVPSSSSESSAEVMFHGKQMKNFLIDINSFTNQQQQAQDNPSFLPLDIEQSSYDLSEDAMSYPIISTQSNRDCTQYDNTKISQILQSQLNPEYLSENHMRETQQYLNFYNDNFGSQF
# assay_text: PBM E-score (8-mer binding enrichment) (E-score (-0.5 to 0.5)); higher = stronger / more preferred TF binding
# cond: protein concentration: 200 nM; construct: GST-full length
Over roughly 33,000 sequences, “E-score (-0.5 to 0.5)” has its median near -0.016; the highest 2% begin near 0.32. What follows is part of a selection rich in the highest values, with near analogues and random picks from the rest.
Quick reference: PBM E-score of the listed items.

{"ordered_residues": "AAAGTTAA", "PBM E-score": 0.102}
{"ordered_residues": "CAAAAGGC", "PBM E-score": 0.359}
{"ordered_residues": "AGAGCTAT", "PBM E-score": -0.179}
{"ordered_residues": "CTGCACGA", "PBM E-score": -0.152}
{"ordered_residues": "AACTTGGA", "PBM E-score": 0.0205}
{"ordered_residues": "CCTGCGGC", "PBM E-score": 0.331}
{"ordered_residues": "GGGCACGA", "PBM E-score": 0.133}
{"ordered_residues": "AAAAACGC", "PBM E-score": 0.125}
{"ordered_residues": "CTATCTTA", "PBM E-score": 0.0702}
{"ordered_residues": "CGGCGTGC", "PBM E-score": 0.316}
{"ordered_residues": "CTCGAAAC", "PBM E-score": 0.113}
{"ordered_residues": "CGGCCCAC", "PBM E-score": -0.051}
{"ordered_residues": "CTATGCAA", "PBM E-score": -0.0966}
{"ordered_residues": "GAAAAGGC", "PBM E-score": 0.145}
{"ordered_residues": "GAGGGTAC", "PBM E-score": -0.22}
{"ordered_residues": "CGAAAGGA", "PBM E-score": -0.102}
{"ordered_residues": "CTTAGCCA", "PBM E-score": 0.13}
{"ordered_residues": "TATGGCGA", "PBM E-score": 0.0899}
{"ordered_residues": "GCGCAAAA", "PBM E-score": 0.227}
{"ordered_residues": "CGGCACGC", "PBM E-score": 0.437}
{"ordered_residues": "ACCTATGG", "PBM E-score": -0.0452}
{"ordered_residues": "AGGCACGC", "PBM E-score": 0.209}
{"ordered_residues": "AAGGAGCC", "PBM E-score": -0.0111}
